METHOD_DESCRIPTION: Acute Toxicity (oral, Litchfield and Wilcoxon)
Type: in vivo
MEASUREMENT_PARAMETERS: mouse, in vivo, po; mice; death within 14 days after application
Mark Y only when LD50 at 336 h stays strictly below 400 mg/kg. Values equal to the cut-off are N.

Some entries whose results are on file:
> print(dat)
                                   molecule  group.label
1  COc1ccc(N2CCN([C@H]3C(C)(C)[C@](O)(c4ccc(O)cc4)C3(C)C)CC2)cc1            N
2  CC1(C)[C@H](N2CCN(c3ccc(O)cc3)CC2)C(C)(C)[C@@]1(O)c1ccc(O)cc1            N

Query block: Could you please tell me whether LD50 at 336 h recorded for CC1(C)[C@H](N2CCN(c3ccccc3)CC2)C(C)(C)[C@@]1(O)c1ccc(O)cc1 is less than 400 mg/kg?
Result block: N

Query block: Then this molecule: CCC(C)c1ccc([C@]2(O)C(C)(C)[C@@H](N3CCN(c4ccccn4)CC3)C2(C)C)cc1 (stereo partly shown)
Result block: Y

====

Listed below: ED50 values for each entry.
Test system: mice
METHOD_DESCRIPTION: Muscle relaxing and sedative activity in mice (slowly rotating wire cylinders, Young and Lewis)
Type: in vivo, NMRI-mice, female
MEASUREMENT_PARAMETERS: Mus musculus, po, after 30-60 minutes, read-out: ED50 (50% of the animals fall out of rotating cylinder)
# value in mg/kg; strip the unit string

Query block: State the recorded ED50 for this entry: CC(C)Cc1ccc([C@]2(O)C(C)(C)[C@@H](N3CCN(c4ccccn4)CC3)C2(C)C)cc1
Result block: 4

====

compounds and their reported ED50
Tested on: mice
METHOD_DESCRIPTION: Activity on the spontaneous motility in mice (inhibition, photoelectric barriers, Friebel, Sommer and Varadan)
Format: in vivo, SPF-NMRI-mice, female
MEASUREMENT_PARAMETERS: Mus musculus, po, after 90-105 minutes, read-out: ED50 (50% inhibition of spontaneous motility)
Numbers only; they are read as mg/kg.

> print(dat)
                                   compound  observation.type  numeric.readout
1  CCC(C)c1ccc([C@]2(O)C(C)(C)[C@@H](N3CCN(c4ccccn4)CC3)C2(C)C)cc1 (stereo partly drawn) [L]              ED50                1

Query block: Using the record for CC1(C)[C@H](N2CCN(c3ccccn3)CC2)C(C)(C)[C@@]1(O)c1ccc(Cl)cc1 [H] , report its ED50.
Result block: 31

Query block: Then CCC(C)c1ccc([C@]2(O)C(C)(C)[C@@H](N3CCN(c4ccccc4)CC3)C2(C)C)cc1 (stereo partly drawn) [O] ?
Result block: 3

====

System: mice
METHOD_DESCRIPTION: Activity on the spontaneous motility in mice (inhibition, photoelectric barriers, Friebel, Sommer and Varadan)
Assay type: in vivo, SPF-NMRI-mice, female
MEASUREMENT_PARAMETERS: Mus musculus, po, after 90-105 minutes, read-out: ED50 (50% inhibition of spontaneous motility)
Protocol: 1. Activity on the spontaneous motility in mice: The inhibition of spontaneous motility was determined with the aid of photoelectric barriers using an adaption of the method of Friebel, Sommer and Varadan (Arzneimittelforschung 9, 126 (1959)). […] The number of interruptions in the flow of light was measured by ten photoelectric cells uniformly distributed in the bottom of a cylindrical cage, 25 cm in diameter, using a counting device. […]
Some compounds, each annotated with its measured ED50.
Entry rule: numbers only, all in mg/kg.

> print(dat)
                                   compound  numeric.readout
1  CC1(C)[C@H](N2CCN(c3ccccn3)CC2)C(C)(C)[C@@]1(O)c1ccc(O)cc1 [A]               11
2  CC(C)(C)c1ccc([C@]2(O)C(C)(C)[C@@H](N3CCN(c4ccccn4)CC3)C2(C)C)cc1 [I]                3
3  CC1(C)[C@H](N2CCN(c3ccccc3)CC2)C(C)(C)[C@@]1(O)c1ccc(O)cc1 [B]                3
4  CC1(C)[C@H](N2CCN(c3ccccn3)CC2)C(C)(C)[C@@]1(O)c1cccc(Cl)c1 [R]               12
5  CC(C)Cc1ccc([C@]2(O)C(C)(C)[C@@H](N3CCN(c4ccccc4)CC3)C2(C)C)cc1 [N]                2
6  CC(C)c1ccc([C@]2(O)C(C)(C)[C@@H](N3CCN(c4ccccn4)CC3)C2(C)C)cc1 [G]                3

Query block: Need ED50 of CC1(C)[C@H](N2CCN(c3ccc(O)cc3)CC2)C(C)(C)[C@@]1(O)c1ccc(O)cc1 [E] , thanks.
Result block: 5

Query block: Field entry: CC(C)(C)c1ccc([C@]2(O)C(C)(C)[C@@H](N3CCN(c4ccccc4)CC3)C2(C)C)cc1 [K]
Result block: 3

====

Test system: mice
METHOD_DESCRIPTION: Muscle relaxing and sedative activity in mice (slowly rotating wire cylinders, Young and Lewis)
Type: in vivo, NMRI-mice, female
MEASUREMENT_PARAMETERS: Mus musculus, po, after 30-60 minutes, read-out: ED50 (50% of the animals fall out of rotating cylinder)
Entries and their ED50 values follow.
Use mg/kg as the unit, but write only the number.

> print(dat)
                         structure.notation  numeric.readout
1  CC(C)(C)c1ccc([C@]2(O)C(C)(C)[C@@H](N3CCN(c4ccccn4)CC3)C2(C)C)cc1               16
2  CC(C)c1ccc([C@]2(O)C(C)(C)[C@@H](N3CCN(c4ccccn4)CC3)C2(C)C)cc1               11
3  CC(C)(C)c1ccc([C@]2(O)C(C)(C)[C@@H](N3CCN(c4ccccc4)CC3)C2(C)C)cc1               48

Query block: State the recorded ED50 for this entry: CC1(C)[C@H](N2CCN(c3ccccc3)CC2)C(C)(C)[C@@]1(O)c1ccc(O)cc1
Result block: 26

Query block: Check CC1(C)[C@H](N2CCN(c3ccccn3)CC2)C(C)(C)[C@@]1(O)c1ccc(O)cc1 too.
Result block: 5.5

Query block: Subsequent entry: COc1ccc(N2CCN([C@H]3C(C)(C)[C@](O)(c4ccc(O)cc4)C3(C)C)CC2)cc1
Result block: 20

====

Documented LD50 at 336 h across a set of compounds
METHOD_DESCRIPTION: Acute Toxicity (oral, Litchfield and Wilcoxon)
Assay type: in vivo
MEASUREMENT_PARAMETERS: mouse, in vivo, po; mice; death within 14 days after application
Give the number; mg/kg is assumed, so skip it.

Example compounds with recorded LD50 at 336 h:
> print(dat)
                                   compound  observation.type  units.of.measure  numeric.readout
1  CC1(C)[C@H](N2CCN(c3ccccn3)CC2)C(C)(C)[C@@]1(O)c1ccc(Cl)cc1     LD50 at 336 h             mg/kg              442
2  CC(C)c1ccc([C@]2(O)C(C)(C)[C@@H](N3CCN(c4ccccn4)CC3)C2(C)C)cc1     LD50 at 336 h             mg/kg              118
3  COc1ccc([C@]2(O)C(C)(C)[C@@H](N3CCN(c4ccccc4)CC3)C2(C)C)cc1OC     LD50 at 336 h             mg/kg             2900
4  CCC(C)c1ccc([C@]2(O)C(C)(C)[C@@H](N3CCN(c4ccccc4)CC3)C2(C)C)cc1 (stereo partly drawn)     LD50 at 336 h             mg/kg              800

Please examine the following record next.
Query block: Quick check: LD50 at 336 h of CC1(C)[C@H](N2CCN(c3ccccn3)CC2)C(C)(C)[C@@]1(O)c1ccc(O)cc1 ?
Result block: 338

====

System: mice
METHOD_DESCRIPTION: Muscle relaxing and sedative activity in mice (slowly rotating wire cylinders, Young and Lewis)
Format: in vivo, NMRI-mice, female
MEASUREMENT_PARAMETERS: Mus musculus, po, after 30-60 minutes, read-out: ED50 (50% of the animals fall out of rotating cylinder)
# strict inequality: ED50 < 30 mg/kg yields Yes, everything else yields No

The following compounds have reported results that may help.
> print(dat)
                                   compound  group.label
1  CCC(C)c1ccc([C@]2(O)C(C)(C)[C@@H](N3CCN(c4ccccc4)CC3)C2(C)C)cc1 (some centres unmarked)          Yes
2  CCC(C)c1ccc([C@]2(O)C(C)(C)[C@@H](N3CCN(c4ccccn4)CC3)C2(C)C)cc1 (some centres unmarked)          Yes
3  CC1(C)[C@H](N2CCN(c3ccccn3)CC2)C(C)(C)[C@@]1(O)c1ccc(Cl)cc1          Yes
4  CC1(C)[C@H](N2CCN(c3ccccn3)CC2)C(C)(C)[C@@]1(O)c1cccc(Cl)c1           No
5  CC(C)c1ccc([C@]2(O)C(C)(C)[C@@H](N3CCN(c4ccccc4)CC3)C2(C)C)cc1          Yes

Query block: Just wondering, is ED50 of CCCCc1ccc([C@]2(O)C(C)(C)[C@@H](N3CCN(c4ccccn4)CC3)C2(C)C)cc1 below 30 mg/kg?
Result block: Yes

Query block: Query CC(C)Cc1ccc([C@]2(O)C(C)(C)[C@@H](N3CCN(c4ccccc4)CC3)C2(C)C)cc1 next
Result block: No

Query block: Next: CC1(C)[C@H](N2CCN(c3ccc(O)cc3)CC2)C(C)(C)[C@@]1(O)c1ccc(O)cc1
Result block: Yes

The values you see were collected from patent US3992536A.
